assay: physchem; details: octanol/water, pH 7.4
Entries and their measured logD follow.

molecule | logD
O=C(OCc1cccc(Oc2ccccc2)c1)N1CCC2(CC1)C(=O)NCN2c1ccccc1 | > 4
O=C(OCc1cc2c(cc1Cl)OCO2)N1CCC(n2c(O)nc3ccccc32)CC1 | 4.2
O=C(OC1CCc2ccccc21)N1CCC2(CC1)C(=O)NCN2c1ccccc1 (centres undefined) | > 4
O=C(NCCCn1c(=O)[nH]c2ccccc21)OCc1cc2c(cc1Cl)OCO2 | > 4
